Measured values drawn from PubChem BioAssay (NCI) for this set.

system: K-562 leukemia; assay: NCI tumour cell line growth inhibition, 48 h
OUTCOME_MEASURE: TGI

Here's what some known entries look like.
CC(=O)[C@@]12O[C@@H]1CC1C3CCC4=CC(O)CCC4(C)C3CCC12C (stereo partly specified)	> 100 µM
OCCCCCNCc1cc2cc3c(cc2c2cc(OCc4ccccc4)ccc12)OCO3	4.11 µM
CCCCC(C(=O)NCCNC(=O)CCC(=O)N(C)O)C(=O)NCCNC(=O)CCC(=O)N(C)O	> 100 µM
C=C1NC(=O)C(C(C)CC)NC(=O)C2CSCC(NC(=O)CCC(=O)O)C(=O)NC(Cc3ccccc3)C(=O)NC(C)C(=O)NC(CC(C)CC)C(=O)NC(C(=O)NC(Cc3ccccc3)C(=O)N3CCCC3C(=O)N2)C(C)OC(=O)C(CO)NC(=O)C(C(O)COC)N(C)C(=O)C(C(C)C)NC(=O)C(CC(C)CC)NC1=O (stereo unspecified)	> 6 µM
CC(C)=Cc1cc(C(=O)Nc2ccc(Cl)c(Cl)c2)nc(N)n1	> 100 µM
CCOC(=O)c1c(C)nc2c3ccccc3c(C#N)c(C)n12	> 100 µM

For each of the compounds below, state TGI.
1. O=c1[nH]c(=O)n(C2OC(CO)C(O)C2O)c2nc(-c3ccc(-c4ccccc4)cc3)cnc12 (stereo unspecified)
2. COc1cccc(CCCNC(=O)Cc2cc(OC)c(OC)cc2CO)c1

**A:**
1. > 100 µM
2. > 100 µM

Look at each compound and report its TGI.
1. Cc1cc(C(=O)CCCCOc2ccc(C3=NCCO3)cc2)c(C)n1C
2. CS(=O)(=O)OCC(CCl)(CCl)CCl
3. Cc1ccc(NC(=O)c2cc3cc(N=Nc4ccccc4C(=O)O)ccc3oc2=O)cc1
4. O=C(CC(C(=O)c1ccsc1)c1ccc2c(c1)OCO2)c1ccccc1 (stereo unspecified)
5. Clc1ccc(C(c2ccc(Cl)cc2)c2ccccn2)cc1
6. O=C1c2ccccc2-c2c1c(-c1ccc(F)cc1)nc1ccc3ccccc3c21

**A:**
> 100 µM
> 100 µM
> 100 µM
> 100 µM
55.6 µM
> 100 µM

Would you mind listing TGI for each of the following compounds?
1. COc1cc(C2c3cc4c(cc3OC(NN)C2C)OCO4)cc(OC)c1OC (stereo unspecified)
2. COc1cc(OC)cc(-c2cc(=O)c3c(OC)c(OC)c(OC)c(OC)c3o2)c1
3. COc1ccc(-c2nnc(COc3ccc(NC(=O)Nc4cc(C(F)(F)F)cc(C(F)(F)F)c4)cc3F)o2)cc1
4. COC(OC)C(C)CC(=O)N(C)C (stereo unspecified)
5. OC(c1nc2ccccc2[nH]1)C(O)C(O)C(O)c1nc2ccccc2[nH]1 (stereo unspecified)
6. Cc1ccc2c(c1)C(=O)C1(Cc3ccccc3C1=O)C2 (stereo unspecified)
7. Cn1cnc([N+](=O)[O-])c1Sc1nc2ccccc2[nH]1

**A:**
["> 31.1 µM", "> 100 µM", "13.5 µM", "> 100 µM", "> 100 µM", "> 100 µM", "> 100 µM"]

Please report TGI for every entry that follows.
1. COc1cc(NS(C)(=O)=O)ccc1Nc1cc(C)[nH]c2ccc3nccc3c12
2. COc1ccc(-c2nc(SCC(=O)N/N=C/c3ccc(N(C)C)cc3)[nH]c2-c2ccc(OC)cc2)cc1
3. OCC#Cc1ccccc1C#Cc1ccccc1
4. COc1cc(C2c3cc4c(cc3OC(C)(O)C2C)OCO4)cc(OC)c1OC (stereo unspecified)
5. O=C1c2cc3c(cc2-c2c1c1ccc(F)cc1c(=O)n2CCCNCCO)OCO3
6. O=c1c2sc(=S)n(-c3ccc(F)cc3)c2ncn1/N=C/c1ccc(F)cc1F
7. CSC(=S)N/N=C(\C)c1ccc(S(=O)(=O)N(C)c2ccccc2)cc1
8. Nc1ncnc2n[nH]c(Nc3ccc(F)cc3)c12

**A:**
["> 100 µM", "> 100 µM", "> 100 µM", "11.9 µM", "1.36 µM", "> 100 µM", "> 100 µM", "> 100 µM"]

I'm hoping you can list TGI for every compound here, please.
1. COc1ccc2c(c1)/C(=C\c1c(Cl)nc3sc(C)cn13)C(=O)N2
2. CCOC(=O)Cn1c(=O)c2nc(SC)sc2n(-c2ccccc2)c1=O
3. CCOC(=O)c1ccc(NCC#CCN2CCOCC2)cc1

**A:**
1: 9.56 µM; 2: > 100 µM; 3: > 100 µM

Please look at the items below and tell me TGI for each one, in order.
1. CC1=NN(c2cccc(Cl)c2)C2(C1=C/C=C/c1ccccc1)C(Cl)C(=O)N2c1nc2ccccc2s1 (stereo unspecified)
2. COC1=CC(=O)C(C2CC(=O)c3c(O)cc(O)cc3O2)=CC1=O (stereo unspecified)
3. O=c1c2sccc2n(CC2COc3ccccc3O2)c(=O)n1O (stereo unspecified)
4. Cc1ccc(C(=C2Sc3ccccc3S2)C(=C2Sc3ccccc3S2)c2ccc(C)s2)s1
5. c1ccc(COc2cccc3ccc[n+](Cc4ccccc4)c23)cc1
6. CCN(CC)c1ccc(-c2cc(-c3cc(OC)c(OC)c(OC)c3)nc(N3CCOCC3)c2C#N)cc1

**A:**
1: 31 µM; 2: 40.8 µM; 3: > 100 µM; 4: > 100 µM; 5: > 100 µM; 6: > 19.9 µM

For every record below, what is its TGI?
1. CC1=CC(O)(c2ccc(-c3ccccc3Cl)cc2)OC1=O (stereo unspecified)
2. NS(=O)(=O)c1cc(Br)c(N=Nc2ccc(O)c3ncccc23)c(Br)c1
3. C/C(=N\NC(=S)NC(CCC(=O)O)C(=O)O)c1ccccn1 (stereo unspecified)

**A:**
1: > 100 µM; 2: > 100 µM; 3: > 100 µM
